- experiment: yeast display, Sf9 membrane polyspecificity reagent, FACS + sequencing; frameworks hold sequencing errors
test-readout: polyreactivity (PSR sort gate)

>>> experimental_result("QVQLVESGGGLVQAGGSLRLSGAASGSIFSHYAMGWYRQAPGKAWELVASISTADSTNYADSVKGRFTISRDNAKNTVYFQMYSLKPEDTAVYYCAAEYQSYAQYAWGYDYCGQGTQVTVSS")
"low polyreactivity"
>>> experimental_result("QVQLVESGGGLVQAGGSLRLSCAASGRTFIVNTMGWYRQAPGKERELVAAITARGGRTYYADSVKGRFTISRDNAKNTVYLQMNSLKPEDTAVYYCNARTPPREAERYYWGQGTQVTVSS")
"low polyreactivity"

====

- experiment: yeast display, Sf9 membrane polyspecificity reagent, FACS + sequencing; frameworks hold sequencing errors
test-readout: polyreactivity (PSR sort gate)

>>> experimental_result("QVQLVESGGGLVQAGGSLRLSCGAYGSIFVSHAMAWSRQAPGKASELVAAISQSGGSTYYADSVKGRFTISRDNAKNTVFLQMSSLKPEDTAVYYCATPSRSGFRIYDYWGQGTQVTVSS")
"low polyreactivity"
>>> experimental_result("QVQLVESGGGLVQAGGSLRLSCAASGSTFSYNAMGWYRRAPGKERELVAAISWNGDSTYADSVKGRFTISRDNAKNTVYLQMNSLKPEDTAVYYCAKETIITPGRRKSPRYLHGYWGQGTQVTVSS")
"low polyreactivity"

====

- experiment: yeast display, Sf9 membrane polyspecificity reagent, FACS + sequencing; frameworks hold sequencing errors
test-readout: polyreactivity (PSR sort gate)

>>> experimental_result("QVQLVESGGGLVQAGGSLRLSCAASGSIFVDTAMGWYRQAPGKERELVAAINWSGGSTYYADSVKGRFTISRDNAQNTVYLQMNSLKPEDTAVYYCYAARPGQTWDEHSWYEYWGQGTQVTVSS")
"low polyreactivity"
>>> experimental_result("QVQLVESGGGLVQAGGSLRLSCAASGSIFQRNAMGWYRQAPGKERELVASISFSDGTTYYADSVKGRCTISRDNAKNTVYLQMNSLKPEDTAVYYCAKKAIVSDQWDKYDYWGQGTQVTVSS")
"low polyreactivity"
>>> experimental_result("QVQLVESGGGLVQAGGSLRLSCAASGRIFRYYAMGWYRQAPGKERELVAAISSGGSTYYADSVKGRFTISRDNAKNTVYLQMNSLKQEDTAVYYCAADRRYSYNWGHGTQVTVSS")
"high polyreactivity"
>>> experimental_result("QVQLVESGGGLVQAGGSLRLSCAASGFTFAFYTMGWSRPAPGKESELVAGITRSGTNTYYADSLTGRFTISRDNAKNTVYLLLNSLTPEDTAVYYCAAAIRPGMDYWGQGTQVTVSS")
"high polyreactivity"
>>> experimental_result("QVQLVESGGGLVQAGGSLRLSCAASGITFEYYAMGWYRPAPGKERELVAAIDTGGSTNYADSVKGRFTISRDNAKNTVYLQMNSLKPEDTAVYSCAADWSWWDGEDDHFEYDYWGQGTQVTVSS")
"low polyreactivity"
>>> experimental_result("QVQLVESGGGLVQAGGSLRLSCAASGSIFYRNVMGWYRQAPGKERELVAAISQRGGSTYYADSVKGRFTISRDKAKNTVFLQMNSLKPEDTAVYYCNAASRGAGTSIWSWYDLWGQGTQVTVSS")
"low polyreactivity"
>>> experimental_result("QVQLVDSGGGLVQAGGSLRLSCAASGFTFNGYAMGWSRPAPGKEREFVAAISSSGGSTYYADSVKGRFTISRDNAKNTVYLQMNSLKPDDTAVYYCNAVGWRKKYDYWGQGTQVTVSS")
"high polyreactivity"
>>> experimental_result("QVQLLESGGGLVQAGGSLRLSCAASGFTFYRYAMGWYRQAPGTERELVAVISRGGNTYYADSVKGRFTISRDNAKNTVYLQMNSLKPEDTAVYDCAVYYPRGVSGGRFTRYDYWGQGTQVTVSS")
"high polyreactivity"
>>> experimental_result("QVQLVESGGGLVQAGGSLRLSCAASGSIFYENTMGWYRQAPGKEREFVAAISRSGGSTYYADSEKGRYTISRDNAKNTVYLQRNSLKPEDTAVYYCAAKSRRYHHEYYYWGQGTQVTVSS")
"high polyreactivity"
>>> experimental_result("QVQLVESGGCLVQAGGSLRLSCAASGSTIPLYAMGWYIQAPGKERELVAAITSGGGNTYYADSVKGRYTISRDNAKNTVYLQKTSLKPDDTAVYYCAAVVGYKSYYSYEYDYWGQGTQVNVSS")
"low polyreactivity"
>>> experimental_result("QVQLVESGGGLVQAGGSLRLSCAASGRTFQINGMGWYRQAPGKERELVAAITRSGGITYYADSVKGRFTISRDNAKNTVYLQMNSLKPEDTAVYYCNADSYAYYSWYDYWGQGTQVTVSS")
"low polyreactivity"
>>> experimental_result("QVQLVESGGGLVQAGGSLRLSCAASGLTIAYYDMGWYRPAPGKERELVARISRGGSTNYADSVKGRFTISRDNAKNTVYLQMNSLKPEDTAVYYCNTGYVYPYKILMDYWGQGTQVTVSS")
"low polyreactivity"
>>> experimental_result("QVQLVESGGGLVQAGGSLRLSCAASGRIFTPNAMGWCRQAPGKERELVAAITWSGDNTYADSVKGRFTISRDNAKNTVYLQMNSLKPEDTAVYYCAAAYGYGHKKYGYWGQGTQVTVSS")
"low polyreactivity"
>>> experimental_result("QVQLVESGGGLVQAGGSLRLSCAASGFTFNQNAMGWYRQAPGKERELVAAISASGGSTYYADSVKGRFTISRDNAKNTVYLQMNSLKPEDTAVYYCAARGTYRYTKYNYWGQGTQVTVSS")
"high polyreactivity"
>>> experimental_result("QVQLVESGGGLVQAGGSLRLSCAASGSTFPTNAMGWYRQAPGKERELDAGITEGGSSTYYADSVKGRFTISRDYAKNTVYLQMNSLKPEDTAVYYCAADVLWYGPFWVRQDDYWGQGTQLTVSS")
"high polyreactivity"
>>> experimental_result("QVQLVESGGGLVQAGGSLRLSCAASGLIFGGNAMGWYRQAPGKERELVAAISRTGGRTYYADSVKGRFTISRDNAKNTVYLQMNSLKPDDTAVYFCAAAAQRPEGYYWGQGTQVTVSS")
"high polyreactivity"
>>> experimental_result("QVQLVESGGGLVQAGGSLRLSCAASGIIITYYTMGWYRQAPGKERELVAAIRWRGGSTYYADSVKGRFTISRDNAKNTVYLQMNSLKPEDTAVYYCNARSAFRSCGRDFLFDYWGQGTQVTGSS")
"high polyreactivity"
>>> experimental_result("QVQLVESGGGLVQAGGSLRLSCDASGSIFYFNAMGWYRQAPGKERELVASITSGGSTNYADSVKGRFTISRDNAKNTVYLQMNSLKPEDTAVYYCNARKVTYPLYQDEMEYWGQGTQVTVSS")
"low polyreactivity"
>>> experimental_result("QVQLVESGGGLVQAGGSLRLSCAASGLIFRYNAMGWYRQAPGKEMELVASITSDGSTNYADSVKGRFTISRDNAKNTVYLQMNSLKPEDTAVYYCAADGYTYWYYQLIPDYDYWGQGTQVTVSS")
"low polyreactivity"
>>> experimental_result("QVQLVESGGGLVQAGGSLRLSCAASGRIFTSNTMGWNRQAPGKERELGAAITSSGGYMYYADSVKGRFTISRDNAKNTGYLQMNSLKPEDTAVYYCAADTIGYHYWYDYWGQGTQVTVSS")
"low polyreactivity"
>>> experimental_result("QDQLVESGGVLFQAGGSLRLTCAAYGRILYHYDMGWYRQAPGKERELVAAITRGAGTNYADSVKGRFTISRDNAKNTVYVQMNSLKPEDTAVYYCNADRFIVTRSRRGDYWGQGTQVTVSS")
"low polyreactivity"
